- assay: chemical genetic growth profiling, strain panel (AID 1159580);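 further: tested at 20 µM; growth read once vehicle control cultures reached saturation at 30 °C; lower values mean less growth of the strain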
- test.conditions: S. cerevisiae deletion strains, growth OD, locus YLR342W, strain FKS1 (second series), active compounds read low
Out of some 5,500 compounds screened, about 2,000 (36%) were called active. Another 18% or so got no clear call; they are omitted. This is one part of the list.
With a cut-off of 1, any normalized growth strictly below it is called true; any normalized growth meeting it or above is called false.

A selection of reference data follows.
compound.string: O=[N+]([O-])c1cc([As](=O)(O)O)ccc1O
group: false

compound.string: Oc1c(I)cc(I)c2cccnc12
group: true

compound.string: CC(=O)Oc1ccc(Cl)c2cccnc12
group: true

compound.string: O=[N+]([O-])c1ccc(O)c([N+](=O)[O-])c1
group: true

compound.string: Cc1ccc2cc3c(ccc4ccccc43)c3c2c1CC3
group: true

stdin: Check if normalized growth falls below 1 for `C[n+]1cccc(C(=O)[O-])c1` .
stdout: false

stdin: Repeat with `O=[N+]([O-])c1cc(O)c(O)c([N+](=O)[O-])c1`
stdout: true

The reported measurements were obtained from PubChem BioAssay AID1159580.
